Each entry below carries its recorded PRE Application ALOMY, percentage damage (five point scale).
- System: Alopecurus myosuroides (ALOMY)
- method_description: Herbicidal glasshouse test, pre-emergence, ALOMY
- Assay type: in vivo
- protocol_conditions: applied at 1000 g/h, evaluated after 13 days
readout_kind: PRE Application ALOMY, percentage damage (five point scale)

In [3]: df
Out[3]:
                                   molecule      obs_value
0  Cc1cc(Cn2c(=O)c(C(=O)Nc3nnnn3C)nn(C)c2=O)ccc1F  5 (5=80-100%)
1  Cn1cnnc1NC(=O)c1nn(C)c(=O)n(-c2ccccc2)c1=O    1 (1=0-19%)
2  Cn1nnnc1NC(=O)c1nn(C)c(=O)n(Cc2cc(Cl)nc(Cl)c2)c1=O  5 (5=80-100%)

All figures here come from patent US20160009693A1.
